Reference for the values: patent US20220332795A1

For each entry below, report its Apical domain, RLU value.
target: T1, CD71 apical domain (UniProt P02786 189-383, limits assumed); test: solution ELISA
T1 construct: domain: Apical domain
T1 sequence (P02786 189-383 limits assumed): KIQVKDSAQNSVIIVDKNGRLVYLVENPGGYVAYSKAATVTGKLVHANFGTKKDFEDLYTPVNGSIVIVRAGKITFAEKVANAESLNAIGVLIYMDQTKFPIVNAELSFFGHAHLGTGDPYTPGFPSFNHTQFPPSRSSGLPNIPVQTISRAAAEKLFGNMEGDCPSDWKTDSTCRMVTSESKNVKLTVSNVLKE
Numbers only, in RLU.

Some binders with known Apical domain, RLU results, for comparison:
[[record]]
binder = "SEQ ID NO 113 (designed binder, FN3 domain) MLPAPKNLVVSRVTEDSARLSWTAPDAAFDSFYIAYAEPRPDGEAINLQVPGSERSYDLTGLKPGTEYSVLIHGVKGGLLSSPLVAFFTT"
readout_type = "Apical domain, RLU"
unit_abbreviation = "RLU"
assay_result = "5.83e+06"

[[record]]
binder = "SEQ ID NO 191 (designed binder, FN3 domain) MLPAPKNLVVSRVTEDSARLSWTAPDAAFDSFFIGYLEPQPPGEAIILAVPGSERSYDLTGLKPGTEYNVTIQGVKGGFPSLPLVASFTT"
readout_type = "Apical domain, RLU"
unit_abbreviation = "RLU"
assay_result = "4.66e+06"

[[record]]
binder = "SEQ ID NO 138 (designed binder, FN3 domain) MLPTPKNLVVSRVTEDSARLSWTAPDAAFDSFYIAYAEPRPDGEAIQLRVPGSERSYDLTGLKPGTEYSVLIHGVKGGLLSSPLHASFTT"
readout_type = "Apical domain, RLU"
unit_abbreviation = "RLU"
assay_result = "5.35e+06"


From here, focus on the item given below.
Recorded Apical domain, RLU (binder SEQ ID NO 197 (designed binder, FN3 domain) MLPAPKNLVVSRVTEDSARLSWTAPDAAFDSFYIAYAEPRPDGEAIKLDVPGSERSYDLTGLKPGTEYSVLIHGVKGGLLSSPLVAFFTT ): 6.78e+06
